# Tested on: Mus musculus
# Experiment description: Antiepileptic activity in CF1 mouse assessed as protection against 240 mins 6Hz corneal stimulation-induced seizure at 4 mg/kg, ip
# Type: functional, organism-based
# Design: dose 4 mg/kg
Active and inactive are the calls of the source. No cut-off for these calls is given here. Where a SMILES comes first, the peptide text is derived from it. [ ]: non-standard residue; d: D form. The star is where a group is joined. NMeW = CN[C@@H](Cc1c[nH]c2ccccc12)C(=O)O; Palmitoyl = CCCCCCCCCCCCCCCC(=O)*

{"Compound": "CCCCCCCCCCCCCCCC(=O)NCCCC[C@H](NC(=O)[C@H](CCCCN)NC(=O)[C@H](CCCCN)NC(=O)[C@@H]1CCCN1C(=O)CNC(=O)[C@H](CC(C)C)NC(=O)[C@H](CC(C)C)NC(=O)[C@H](Cc1ccc(O)cc1)NC(=O)CNC(=O)[C@H](C)NC(=O)[C@H](CO)NC(=O)[C@H](CC(N)=O)NC(=O)[C@H](CC(C)C)NC(=O)[C@@H](NC(=O)[C@H](Cc1c[nH]c2ccccc12)NC(=O)CN)[C@@H](C)O)C(=O)N[C@@H](CCCCN)C(N)=O", "Activity": "inactive"}
{"Compound": "CCCCCCCCCCCCCCCC(=O)NCCCC[C@H](NC(=O)[C@H](CCCCN)NC(=O)[C@H](CCCCN)NC(=O)[C@@H]1CCCN1C(=O)CNC(=O)[C@H](CC(C)C)NC(=O)[C@H](CC(C)C)NC(=O)[C@H](Cc1ccc(O)cc1)NC(=O)CNC(=O)[C@H](C)NC(=O)[C@H](CO)NC(=O)[C@H](CC(N)=O)NC(=O)[C@H](CC(C)C)NC(=O)[C@@H](NC(=O)[C@H](Cc1c[nH]c2ccccc12)NC(=O)CNC)[C@@H](C)O)C(=O)N[C@@H](CCCCN)C(=O)O", "Activity": "inactive"}
{"Compound": "CCCCCCCCCCCCCCCC(=O)NCCCC[C@H](NC(=O)[C@H](CCCCN)NC(=O)[C@H](CCCCN)NC(=O)[C@@H]1CCCN1C(=O)CNC(=O)[C@H](CC(C)C)NC(=O)[C@H](CC(C)C)NC(=O)[C@H](Cc1ccc(O)cc1)NC(=O)CNC(=O)[C@H](C)NC(=O)[C@H](CO)NC(=O)[C@H](CC(N)=O)NC(=O)[C@H](CC(C)C)NC(=O)[C@@H](NC(=O)[C@@H](N)Cc1c[nH]c2ccccc12)[C@@H](C)O)C(=O)N[C@@H](CCCCN)C(N)=O (H-WTLNSAGYLLGPKKK(Palmitoyl)K-NH2)", "Activity": "inactive"}
{"Compound": "CCCCCCCCCCCCCCCC(=O)NCCCC[C@H](NC(=O)[C@H](CCCCN)NC(=O)[C@H](CCCCN)NC(=O)[C@@H]1CCCN1C(=O)CNC(=O)[C@H](CC(C)C)NC(=O)[C@H](CC(C)C)NC(=O)[C@H](Cc1ccc(O)cc1)NC(=O)CNC(=O)[C@H](C)NC(=O)[C@H](CO)NC(=O)[C@H](CC(N)=O)NC(=O)[C@H](CC(C)C)NC(=O)[C@@H](NC(=O)[C@H](Cc1c[nH]c2ccccc12)NC(=O)[C@H](C)N)[C@@H](C)O)C(=O)N[C@@H](CCCCN)C(N)=O (H-AWTLNSAGYLLGPKKK(Palmitoyl)K-NH2)", "Activity": "inactive"}
{"Compound": "CCCCCCCCCCCCCCCC(=O)NCCCC[C@H](NC(=O)[C@H](CCCCN)NC(=O)[C@H](CCCCN)NC(=O)[C@@H]1CCCN1C(=O)CNC(=O)[C@H](CC(C)C)NC(=O)[C@H](CC(C)C)NC(=O)[C@H](Cc1ccc(O)cc1)NC(=O)CNC(=O)[C@H](C)NC(=O)[C@H](CO)NC(=O)[C@H](CC(N)=O)NC(=O)[C@H](CC(C)C)NC(=O)[C@@H](NC(=O)[C@H](Cc1c[nH]c2ccccc12)NC)[C@@H](C)O)C(=O)N[C@@H](CCCCN)C(N)=O (H-[NMeW]TLNSAGYLLGPKKK(Palmitoyl)K-NH2)", "Activity": "inactive"}

----------
# Species: Homo sapiens
# Experiment description: Selectivity ratio of Ki for human GalR2 to Ki for human GalR1
Where a SMILES comes first, the peptide text is derived from it. The star is where a group is joined. Palmitoyl = CCCCCCCCCCCCCCCC(=O)*

{"Molecule": "CCCCCCCCCCCCCCCC(=O)NCCCC[C@H](NC(=O)[C@H](CCCCN)NC(=O)[C@H](CCCCN)NC(=O)[C@@H]1CCCN1C(=O)CNC(=O)[C@H](CC(C)C)NC(=O)[C@H](CC(C)C)NC(=O)[C@H](Cc1ccc(O)cc1)NC(=O)CNC(=O)[C@H](C)NC(=O)[C@H](CO)NC(=O)[C@H](CC(N)=O)NC(=O)[C@H](CC(C)C)NC(=O)[C@@H](NC(=O)[C@H](Cc1c[nH]c2ccccc12)NC(=O)CN)[C@@H](C)O)C(=O)N[C@@H](CCCCN)C(N)=O", "Ratio Ki": 6.25}
{"Molecule": "CCCCCCCCCCCCCCCC(=O)NCCCC[C@H](NC(=O)[C@H](CCCCN)NC(=O)[C@H](CCCCN)NC(=O)[C@@H]1CCCN1C(=O)CNC(=O)[C@H](CC(C)C)NC(=O)[C@H](CC(C)C)NC(=O)[C@H](Cc1ccc(O)cc1)NC(=O)CNC(=O)[C@H](C)NC(=O)[C@H](CO)NC(=O)[C@H](CC(N)=O)NC(=O)[C@H](CC(C)C)NC(=O)[C@@H](NC(=O)[C@H](Cc1c[nH]c2ccccc12)NC(=O)CNC)[C@@H](C)O)C(=O)N[C@@H](CCCCN)C(=O)O", "Ratio Ki": 14.7}
{"Molecule": "CCCCCCCCCCCCCCCC(=O)NCCCC[C@H](NC(=O)[C@H](CCCCN)NC(=O)[C@H](CCCCN)NC(=O)[C@@H]1CCCN1C(=O)CNC(=O)[C@H](CC(C)C)NC(=O)[C@H](CC(C)C)NC(=O)[C@H](Cc1ccc(O)cc1)NC(=O)CNC(=O)[C@H](C)NC(=O)[C@H](CO)NC(=O)[C@H](CC(N)=O)NC(=O)[C@H](CC(C)C)NC(=O)[C@@H](NC(=O)[C@@H](N)Cc1c[nH]c2ccccc12)[C@@H](C)O)C(=O)N[C@@H](CCCCN)C(N)=O (H-WTLNSAGYLLGPKKK(Palmitoyl)K-NH2)", "Ratio Ki": 0.12}

----------
# Experiment description: Metabolic stability in 25 % rat serum assessed as half life
# Format: ADME, cell-free
Where a SMILES comes first, the peptide text is derived from it. [ ]: non-standard residue; d: D form. The star is where a group is joined. NMeW = CN[C@@H](Cc1c[nH]c2ccccc12)C(=O)O; Palmitoyl = CCCCCCCCCCCCCCCC(=O)*

{"Compound": "CCCCCCCCCCCCCCCC(=O)NCCCC[C@H](NC(=O)[C@H](CCCCN)NC(=O)[C@H](CCCCN)NC(=O)[C@@H]1CCCN1C(=O)CNC(=O)[C@H](CC(C)C)NC(=O)[C@H](CC(C)C)NC(=O)[C@H](Cc1ccc(O)cc1)NC(=O)CNC(=O)[C@H](C)NC(=O)[C@H](CO)NC(=O)[C@H](CC(N)=O)NC(=O)[C@H](CC(C)C)NC(=O)[C@@H](NC(=O)[C@H](Cc1c[nH]c2ccccc12)NC(=O)CNC)[C@@H](C)O)C(=O)N[C@@H](CCCCN)C(=O)O", "Censoring operator": "=", "half-life / h": 9.4}
{"Compound": "CCCCCCCCCCCCCCCC(=O)NCCCC[C@H](NC(=O)[C@H](CCCCN)NC(=O)[C@H](CCCCN)NC(=O)[C@@H]1CCCN1C(=O)CNC(=O)[C@H](CC(C)C)NC(=O)[C@H](CC(C)C)NC(=O)[C@H](Cc1ccc(O)cc1)NC(=O)CNC(=O)[C@H](C)NC(=O)[C@H](CO)NC(=O)[C@H](CC(N)=O)NC(=O)[C@H](CC(C)C)NC(=O)[C@@H](NC(=O)[C@H](Cc1c[nH]c2ccccc12)NC(=O)CN)[C@@H](C)O)C(=O)N[C@@H](CCCCN)C(N)=O", "Censoring operator": ">", "half-life / h": 10}
{"Compound": "CCCCCCCCCCCCCCCC(=O)NCCCC[C@H](NC(=O)[C@H](CCCCN)NC(=O)[C@H](CCCCN)NC(=O)[C@@H]1CCCN1C(=O)CNC(=O)[C@H](CC(C)C)NC(=O)[C@H](CC(C)C)NC(=O)[C@H](Cc1ccc(O)cc1)NC(=O)CNC(=O)[C@H](C)NC(=O)[C@H](CO)NC(=O)[C@H](CC(N)=O)NC(=O)[C@H](CC(C)C)NC(=O)[C@@H](NC(=O)[C@H](Cc1c[nH]c2ccccc12)NC)[C@@H](C)O)C(=O)N[C@@H](CCCCN)C(N)=O (H-[NMeW]TLNSAGYLLGPKKK(Palmitoyl)K-NH2)", "Censoring operator": "=", "half-life / h": 9}
